test_description: Biodistribution by LC-Mass Spectral analysis
conditions_used: mouse, heart, po, 3 mg/kg, Tissue Distribution, mice, 3 mg/kg (table)
property_label: concentration at 4 h (ng/mL)
# number only, unit ng/mL dropped from output

In [3]: df
Out[3]:
                                   compound        property_label  observed_value
0  Cc1ccc(CNCCCN(Cc2ccc(C(=O)O)cc2)Cc2cc(C(F)(F)F)cc(C(F)(F)F)c2)cc1  concentration at 4 h            1.35

# next compound below
(Q) Identify measured concentration at 4 h associated with CN(CCOc1ccc(CC2SC(=O)NC2=O)cc1)c1ccccn1 (centres unmarked) [Rosiglitazone, rosiglitazone, reference compound]
(A) 0.64

###

test_description: Biodistribution by LC-Mass Spectral analysis
conditions_used: mouse, adipose, po, 3 mg/kg, Concentration, mice, 3 mg/kg (table)
property_label: concentration at 4 h (ng/mL)
# number only, unit ng/mL dropped from output

                                   compound  measurement_units  observed_value
0  CN(CCOc1ccc(CC2SC(=O)NC2=O)cc1)c1ccccn1 (centres unmarked) [Rosiglitazone, rosiglitazone, reference compound]              ng/mL              13

# next compound below
(Q) Identify measured concentration at 4 h associated with `Cc1ccc(CNCCCN(Cc2ccc(C(=O)O)cc2)Cc2cc(C(F)(F)F)cc(C(F)(F)F)c2)cc1`
(A) 40.4

###

test_description: Biodistribution by LC-Mass Spectral analysis
conditions_used: mouse, liver, po, 3 mg/kg, Concentration, mice, 3 mg/kg (table)
In this section, each of the compounds is paired with its reported concentration at 4 h.
# number only, unit ng/mL dropped from output

>>> df
                                   compound  measurement_units  observed_value
0  Cc1ccc(CNCCCN(Cc2ccc(C(=O)O)cc2)Cc2cc(C(F)(F)F)cc(C(F)(F)F)c2)cc1 [Compound 9]              ng/mL             200

# next compound below
(Q) Identify measured concentration at 4 h associated with CN(CCOc1ccc(CC2SC(=O)NC2=O)cc1)c1ccccn1 (centres unmarked) [Rosiglitazone, rosiglitazone, reference compound]
(A) 250

###

test_description: Biodistribution by LC-Mass Spectral analysis
conditions_used: mouse, liver, po, 3 mg/kg, Tissue Concentration, mice, 3 mg/kg (table)
property_label: concentration at 4 h
State the result as a value with its unit after it.

>>> print(df.to_string())
                                   compound        property_label  observed_value
0  Cc1ccc(CNCCCN(Cc2ccc(C(=O)O)cc2)Cc2cc(C(F)(F)F)cc(C(F)(F)F)c2)cc1 [Compound 9]  concentration at 4 h      24.8 ng/mL

# next compound below
(Q) Identify measured concentration at 4 h associated with CN(CCOc1ccc(CC2SC(=O)NC2=O)cc1)c1ccccn1 (centres unmarked) [Rosiglitazone, rosiglitazone, reference compound]
(A) 8.89 ng/mL

###

In this section, each of the molecules is paired with its reported concentration at 4 h.
test_description: Biodistribution by LC-Mass Spectral analysis
conditions_used: mouse, liver, po, 3 mg/kg, Tissue Distribution, mice, 3 mg/kg (table)
State the result as a value with its unit after it.

In [3]: df
Out[3]:
                                   molecule  observed_value
0  Cc1ccc(CNCCCN(Cc2ccc(C(=O)O)cc2)Cc2cc(C(F)(F)F)cc(C(F)(F)F)c2)cc1 [Compound 9]      11.9 ng/mL

# next molecule below
(Q) Identify measured concentration at 4 h associated with CN(CCOc1ccc(CC2SC(=O)NC2=O)cc1)c1ccccn1 (centres unmarked) [Rosiglitazone, rosiglitazone, reference compound]
(A) 4.95 ng/mL

###

System: 3T3-L1 adipocytes
test_description: Lipid accumulation by oil red-o staining
Type: cell-based
conditions_used: 6 days, oil red-o stain
property_label: Lipid accumulation

>>> print(df.to_string())
                                   compound          tested_on      property_label           observed_value
0  CC(C(=O)O)c1ccc(CNCc2ccc(Cl)c(Cl)c2)cc1 (stereo not shown) [Compound 4-23]  3T3-L1 adipocytes  Lipid accumulation  less lipid accumulation
1  Cc1ccc(CNCCCN(Cc2ccc(C(=O)O)cc2)Cc2cc(C(F)(F)F)cc(C(F)(F)F)c2)cc1 [Compound 9]  3T3-L1 adipocytes  Lipid accumulation  less lipid accumulation
2  CCOC(CNCc1ccc(C(F)(F)F)cc1)OCC [Compound 3-121]  3T3-L1 adipocytes  Lipid accumulation  less lipid accumulation

###

test_description: Biodistribution by LC-Mass Spectral analysis
conditions_used: mouse, brain, po, 3 mg/kg, Tissue Distribution, mice, 3 mg/kg (table)
property_label: concentration at 4 h (ng/mL)
# number only, unit ng/mL dropped from output

(Q) Identify measured concentration at 4 h associated with `Cc1ccc(CNCCCN(Cc2ccc(C(=O)O)cc2)Cc2cc(C(F)(F)F)cc(C(F)(F)F)c2)cc1`
(A) 2.96

###

test_description: Biodistribution by LC-Mass Spectral analysis
conditions_used: mouse, brain, po, 3 mg/kg, Concentration, mice, 3 mg/kg (table)
property_label: concentration at 4 h (ng/mL)
# number only, unit ng/mL dropped from output

(Q) Identify measured concentration at 4 h associated with `Cc1ccc(CNCCCN(Cc2ccc(C(=O)O)cc2)Cc2cc(C(F)(F)F)cc(C(F)(F)F)c2)cc1`
(A) 38.7

###

test_description: Biodistribution by LC-Mass Spectral analysis
conditions_used: mouse, adipose, po, 3 mg/kg, Tissue Concentration, mice, 3 mg/kg (table)
In this section, each of the compounds is paired with its reported concentration at 4 h.
# number only, unit ng/mL dropped from output

>>> df
                                   compound        property_label  measurement_units  observed_value
0  Cc1ccc(CNCCCN(Cc2ccc(C(=O)O)cc2)Cc2cc(C(F)(F)F)cc(C(F)(F)F)c2)cc1  concentration at 4 h              ng/mL            15.2

# next compound below
(Q) Identify measured concentration at 4 h associated with CN(CCOc1ccc(CC2SC(=O)NC2=O)cc1)c1ccccn1 (centres unmarked) [Rosiglitazone, rosiglitazone, reference compound]
(A) 5
